# Tested on: Plasmodium berghei
# experiment_description: Luciferase/luciferin-expressing antifolate-resistant parasites were used to infect a culture of HepG2 cells that were pre-incubated with compounds. Infected hepatocytes emit light due to the luciferase reaction. Assay results are presented as the percent inhibition of light emission compared to control. […]
# Type: functional
# condition: sporozoite, PBLUC_HILL_SLOPE 16.7, 2.98, PBLUC_R_SQUARED 0.617, 0.740, read-out: LUCIFERASE INFECTION ASSAY - IC50
endpoint_label: IC50 (µM)
Respond with the bare value in µM.

Per the record, CC(C1CC2CCC1C2)N1C(=O)C(=O)N(CC(=O)Nc2cccc(F)c2)C1=O (stereo unspecified) has IC50 of 4.13

---

# Tested on: Plasmodium berghei
# experiment_description: Luciferase/luciferin-expressing antifolate-resistant parasites were used to infect a culture of HepG2 cells that were pre-incubated with compounds. Infected hepatocytes emit light due to the luciferase reaction. Assay results are presented as the percent inhibition of light emission compared to control. […]
# Type: functional
# condition: sporozoite, HEPG2TOX_HILL_SLOPE 11.4, HEPG2TOX_R_SQUARED 0.062, PBLUC_HILL_SLOPE 8, PBLUC_R_SQUARED 0.677, read-out: LUCIFERASE INFECTION ASSAY - IC50
endpoint_label: pIC50
Just so you know, pIC50 here is -log10 of the concentration in molar units; reply with that number alone.

Per the record, COc1cc(-c2cc(-c3cc(C)c(O)c(C)c3)cnc2N)ccc1O has pIC50 of 5.52

---

# Tested on: Plasmodium berghei
# experiment_description: Luciferase/luciferin-expressing antifolate-resistant parasites were used to infect a culture of HepG2 cells that were pre-incubated with compounds. Infected hepatocytes emit light due to the luciferase reaction. Assay results are presented as the percent inhibition of light emission compared to control. […]
# Assay type: functional
# condition: sporozoite, FFLUC_HILL_SLOPE 9.54, FFLUC_R_SQUARED 0.0205, HEPG2TOX_HILL_SLOPE 2.18, HEPG2TOX_R_SQUARED 0.934, PBLUC_HILL_SLOPE 9.18, PBLUC_R_SQUARED 0.547, read-out: LUCIFERASE INFECTION ASSAY - IC50
endpoint_label: pIC50
Just so you know, pIC50 here is -log10 of the concentration in molar units; reply with that number alone.

Per the record, COc1ccc(O)c(/C=N/NC(=O)c2ccc(CSc3nc(C)cc(C)n3)cc2)c1 has pIC50 of 5.42

---

# Tested on: Plasmodium berghei
# experiment_description: Luciferase/luciferin-expressing antifolate-resistant parasites were used to infect a culture of HepG2 cells that were pre-incubated with compounds. Infected hepatocytes emit light due to the luciferase reaction. Assay results are presented as the percent inhibition of light emission compared to control. […]
# Type: functional
# condition: sporozoite, FFLUC_HILL_SLOPE 6.57, FFLUC_R_SQUARED 0.404, PBLUC_HILL_SLOPE 14.6, PBLUC_R_SQUARED 0.481, read-out: LUCIFERASE INFECTION ASSAY - IC50
endpoint_label: IC50 (µM)
Respond with the bare value in µM.

Per the record, O=C(Nc1ccccc1)c1ccc(CN2C(=O)NC(c3ccccc3)(c3ccccc3)C2=O)cc1 has IC50 of 3.39

---

# System: Plasmodium berghei
# experiment_description: Luciferase/luciferin-expressing antifolate-resistant parasites were used to infect a culture of HepG2 cells that were pre-incubated with compounds. Infected hepatocytes emit light due to the luciferase reaction. Assay results are presented as the percent inhibition of light emission compared to control. […]
# Format: functional
# condition: sporozoite, read-out: LUCIFERASE INFECTION ASSAY - IC90
Please respond with reported IC90 for every item in the list.

Per the record, N#CC(C#N)=Cc1c(-c2ccc(Cl)cc2)[nH]c2ccccc12 has IC90 of 1.39 µM

Per the record, CCOc1ccc(-n2c(SC(C)C(=O)c3ccc(C(C)C)cc3C(C)C)nnc2-c2c[nH]c3ccccc23)cc1 (stereo not drawn) has IC90 of > 10 µM

Per the record, N=C(NOC(=O)Nc1ccc(OC(F)(F)F)cc1)c1cnccn1 has IC90 of > 9.67 µM

Per the record, Cc1cc(C)c(C(=O)C2CCN(C(=O)c3cccs3)CC2)c(C)c1 has IC90 of > 9.66 µM

Per the record, O=C(CN1CCN(c2cccc(Cl)c2)CC1)Nc1nccs1 has IC90 of > 9.8 µM

Per the record, O=C(NNC(=O)c1sc(-c2ccco2)nc1-c1ccccc1)c1ccccn1 has IC90 of 3.33 µM

Per the record, Cc1ccc(NC2=CC(=O)CC(c3ccco3)C2)c(N)c1 (stereo not drawn) has IC90 of 6.68 µM

Per the record, CCNC(=O)C1CCCN(CCOc2ccc(Cl)cc2)CC1 (stereo not drawn) has IC90 of > 10.2 µM

Per the record, Cc1ccc(-c2nonc2NC(=O)c2sc3ccccc3c2Cl)cc1 has IC90 of 6.55 µM

Per the record, Clc1ccc(Nc2nccc3c2ncn3Cc2ccccc2)cc1 has IC90 of > 10 µM

Per the record, N#C/C(=N\Nc1cccc(C(F)(F)F)c1)C(=O)C1CC1 has IC90 of 10.7 µM

Per the record, Cn1nc(-c2ccc(/C=N/NC(=O)c3ccc(Cl)cc3Cl)s2)cc1C(F)(F)F has IC90 of > 7.38 µM

Per the record, CCCCn1c(SCC(=O)Nc2cc(C(F)(F)F)ccc2N2CCOCC2)nc2ccccc21 has IC90 of > 10 µM

Per the record, O=C(NC(c1ccccc1O)C(NC(=O)c1ccccc1)c1ccccc1O)c1ccccc1 (stereo not drawn) has IC90 of > 7.29 µM

Per the record, CCc1c(C)[nH]c2cc(-c3ccc(OC)cc3)nn2c1=O has IC90 of 3.98 µM

Per the record, COc1ccc(Nc2nc(NCCO)c3ccccc3n2)cc1 has IC90 of > 10 µM

Per the record, Cn1c(N)c(C(=O)CSc2nnc(-c3ccccc3)c(-c3ccccc3)n2)c(=O)n(C)c1=O has IC90 of > 10 µM

Per the record, O=C(Nc1ccc2c(c1)OC1(CCCC1)O2)N1CCN(c2ccc(O)cc2)CC1 has IC90 of 4.23 µM

Per the record, NC(=O)C1CN(S(=O)(=O)c2cc(Cl)sc2Cl)c2ccccc2O1 (stereo not drawn) has IC90 of > 10 µM

Per the record, OC1CCN(c2nn3cc(-c4ccccc4)nc3s2)CC1 has IC90 of 0.954 µM

Per the record, COc1ccccc1N1CCN(c2oc(-c3ccccc3Cl)nc2S(=O)(=O)c2ccc(C)cc2)CC1 has IC90 of > 10 µM

Per the record, CC1S/C(=C\c2nc3ccccc3s2)NC1=O (stereo not drawn) has IC90 of > 10 µM

Per the record, N#Cc1cccc(Nc2nc(C(F)(F)F)nc3ccccc23)c1 has IC90 of > 10 µM

Per the record, O=C(CCn1c(-c2ccc(F)cc2)n[nH]c1=S)Nc1nc2c(s1)CCCC2 has IC90 of > 10 µM

Per the record, N#Cc1ccc(N2CCCN(C(=O)Nc3cc(Cl)cc(Cl)c3)CC2)nc1 has IC90 of > 8.46 µM

Per the record, CCn1c2ccccc2c2cc([N+](=O)[O-])ccc21 has IC90 of > 13.7 µM

Per the record, Cc1cc(NC(C)C)n2ncc(-c3ccc(F)cc3)c2n1 has IC90 of 5.57 µM

Per the record, O=C(Nc1ccc(Cl)cc1)Nc1csc([N+](=O)[O-])c1 has IC90 of 10 µM

Per the record, CCn1c(SCC(=O)N2N=C(c3ccco3)CC2c2ccco2)nc2ccsc2c1=O (stereo not drawn) has IC90 of > 10 µM

Per the record, CC(=N)C(C#N)c1csc(Nc2cc(C)cc(C)c2)n1 (stereo not drawn) has IC90 of > 10 µM

Per the record, O=C(NC1CC1)c1ccc(CN(Cc2ccco2)Cc2nc(-c3ccc(F)cc3)no2)cc1 has IC90 of 0.482 µM

Per the record, Cc1cc(C(O)(C(F)(F)F)C(F)(F)F)c(C)n1-c1ccc(N(C)C)cc1 has IC90 of > 10 µM

Per the record, Cc1ccc2c(c1)C(=O)C(=O)N2CCN1CCCCC1 has IC90 of > 12.1 µM

Per the record, CCn1nc(C(=O)NCc2ccc(OC)cc2)c2c1CCN(C(=O)C1Cc3ccccc3O1)C2 (stereo not drawn) has IC90 of 6.24 µM

Per the record, Cc1cccc(C(=O)Nc2nc3ccccn3c2C(=O)NC2CCCCC2)c1 has IC90 of 2.91 µM

Per the record, O=C(OC(C(=O)N1CCOCC1)c1ccccc1)c1cccc(-n2cccc2)c1 (stereo not drawn) has IC90 of > 2 µM

Per the record, Cc1ccc(C(=O)Nc2ccccc2Sc2ncc([N+](=O)[O-])s2)cc1 has IC90 of > 8.88 µM

Per the record, CC(C)CN1C(=O)N(Cc2ccccc2)C2(CCN(C3Cc4ccccc4C3)CC2)C1=O has IC90 of > 7.65 µM

Per the record, COC(=O)c1ccc(C(=O)Nc2nc3ccc(C)cn3c2C(=O)NC2CCCCC2)cc1 has IC90 of > 7.6 µM

Per the record, COc1ccccc1N(C)S(=O)(=O)c1ccc(C(=O)NNC(=O)c2nn(C)c(=O)c3ccccc23)cc1 has IC90 of > 10 µM

Per the record, O=C(COC(=O)COc1ccc2c3c(c(=O)oc2c1)CCC3)Nc1ccc(F)c(F)c1F has IC90 of > 10 µM

Per the record, COc1ccccc1NC(=S)N/N=C(C)/C=C/C1C(C)=CCCC1(C)C (stereo not drawn) has IC90 of > 10 µM

Per the record, CCOc1ccccc1N(C(=O)C1CC=CCC1)c1nc2ccccc2s1 (stereo not drawn) has IC90 of > 10 µM
